- procedure details: 384-well plate pilot, post-Golgi transport modulator project, inhibition of yeast transport mutant growth (AID 636); also: test concentration not given here
- condition set: absorbance 615 nm, about 18 h, hits give high values
parameter: inhibition (%)

molecule	unit descriptor	measured
CSC1=NCCN1C(=O)c1ccc(S(=O)(=O)N2CCCC2)cc1	%	0.77
Cc1ccc(-c2cc(C(=O)N3CCCC3)no2)cc1	%	-2.11
CCCCOc1ccc(-c2nnn(CC(=O)NCc3ccco3)n2)cc1	%	-1.18
Cc1ccccc1C(=O)Nc1c(C(=O)N2CCCC2)cnn1-c1ccccc1	%	-7.7
CCn1nc(C(=O)OCC(=O)N2CCc3ccccc32)c2ccccc2c1=O	%	1.41
COc1cccc(CNc2cccc3cccnc23)c1O	%	-3.16
CCNC(=O)CC1C(=O)N(c2ccccc2)C(=O)N1Cc1ccc(OC)cc1 (stereo unspecified)	%	-3.68
COc1ccc(Cc2nn3c(-c4cc(OC)c(OC)c(OC)c4)nnc3s2)cc1	%	-6.08
COc1ccccc1NC(=O)CSc1nnc(CC(=O)Nc2ccccc2)n1C	%	-2.99
CCOC(=O)C(NC(=O)c1ccccc1)(Nc1cc(C)on1)C(F)(F)F (stereo unspecified)	%	-0.93
Cc1cc(NC(=O)CCC(=O)N(CC(=O)NC2CCCC2)Cc2ccc(F)cc2)no1	%	-5.87
O=C1N(c2ccccc2)C2CS(=O)(=O)CC2N1c1ccc(Br)cc1 (stereo unspecified)	%	-6.4
Cc1cc(C(F)(F)F)nn1Cc1ccc(C(=O)NCc2ccco2)o1	%	-0.53
O=C(CN1CCC(n2nnc3cc(F)ccc32)CC1)Nc1ccc2c(c1)CCC2	%	-4.59
Cc1cccc(NC(=O)CCN2CCN(C/C=C/c3ccccc3)CC2)c1	%	-2.53
O=C(c1ccc(Cl)c(F)c1F)N1CCCC1	%	-1.67
CCOC(=O)C1CCN(C(=O)CSc2n[nH]c(=O)[nH]c2=O)CC1	%	-8.51
CCOc1ccc2cc(C#N)c(SCC(=O)N3CCOCC3)nc2c1	%	-6.8
CC(C)=CCCC(C)CN(C)CCc1ccccn1 (stereo unspecified)	%	-5.19
CCC(=O)N1CCN=C1SCc1ccc(Cl)cc1	%	1.04
COc1cc(C2C(C#N)=C(N)OC3=C2C(=O)CCC3)ccc1OC(=O)N1CCOCC1 (stereo unspecified)	%	-5.87
Cc1noc(C)c1CSc1nnc(-c2ccncc2)n1-c1cccc(Cl)c1C	%	-3.42
Cc1ccc(/C(O)=C2/C(=O)C(=O)N(Cc3ccco3)C2c2cccs2)cc1 (stereo unspecified)	%	-5.21
OCCN1CCN(CC(O)COc2ccc3ccccc3c2)CC1 (stereo unspecified)	%	-4.8
CCOC(=O)C1=C(C)Nc2ncnn2C1c1ccccc1F (stereo unspecified)	%	-0.92
Cc1ccc(C(c2nnnn2CCC(C)C)N2CCN(C)CC2)cc1 (stereo unspecified)	%	-6.67
COc1cc(OC)c(-c2nn3c(C4CCCCC4)nnc3s2)cc1OC	%	-0.52
COC(=O)c1sc(NC(=O)c2ccoc2C)nc1C	%	-3.07
O=C1CCCC(O)=C1C=Nc1ccc2c(c1)oc1ccccc12	%	-5.87
CCOc1cc(C(=O)Nc2ccon2)cc(OCC)c1OCC	%	-3.03
O=C(Nc1cccnc1)c1noc2c1CCCCC2	%	-0.66
CCCS(=O)(=O)N1CCN(C(=O)c2cccs2)CC1	%	-1.07
COc1cc(C(c2sc3nc(C)nn3c2O)N2CC(C)CC(C)C2)cc(OC)c1OC (stereo unspecified)	%	0.9
Cc1ccc(C)c(S(=O)(=O)NCc2cccnc2)c1	%	-5.33
COc1ccc(CCNC(=O)c2cnc3scc(C)n3c2=O)cc1OC	%	-6.27
COc1cccc(NC(=O)Nc2cccs2)c1	%	-6.53
CC(C)(C)NC(=O)Nc1ccccc1C(N)=O	%	-2.27
CCCN(CCC)CCNC(=O)C(NS(=O)(=O)c1ccc2c(c1)CCC(=O)N2)c1ccccc1 (stereo unspecified)	%	1.05
CC(=O)Nc1ccc(Oc2cc(C#N)c(C#N)cc2N2CCCCCC2)cc1	%	-3.03
O=C(CCN1C(=O)C2C3C=CC(C3)C2C1=O)Nc1c(F)cc(F)cc1Br (stereo unspecified)	%	1.08
CN=Cc1cc(-c2ccccc2)sc1O	%	0.41
Cn1c(-c2cc(Br)ccc2O)n[nH]c1=S	%	4.03
CCOC(=O)CN(C(=O)CSc1nnc(-c2ccncc2)n1CCCN(C)C)c1ccccc1	%	-5.19
COc1ccc(N2CCN(CCCNC(=O)C3CCCN(S(=O)(=O)c4cnc[nH]4)C3)CC2)cc1 (stereo unspecified)	%	-4
CCC1=C(C(=O)OC)C(c2cc(OC)ccc2OC)C(C#N)=C(N)O1 (stereo unspecified)	%	-6.67
Cc1ccc(-c2cc(C(=O)NCCN3CCOCC3)no2)cc1	%	3.07
